# Tested on: RXRa DBDmut IVT, anti-RXR (DBD mutation: RXRa K156A/R161A, NR concentration 90 nM)
# Test details: PBM binding z-score (relative to random genomic background probes); higher = stronger binding; sequences stand for … in GC…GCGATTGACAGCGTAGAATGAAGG
Value kind: PBM binding z-score
Number only, no unit.

Solved cases below.
Form: Entry = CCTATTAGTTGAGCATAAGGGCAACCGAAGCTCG | System = RXRa DBDmut IVT, anti-RXR (DBD mutation: RXRa K156A/R161A, NR concentration 90 nM) | PBM binding z-score = ____ 0.381

Form: Entry = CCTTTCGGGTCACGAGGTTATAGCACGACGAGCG | System = RXRa DBDmut IVT, anti-RXR (DBD mutation: RXRa K156A/R161A, NR concentration 90 nM) | PBM binding z-score = ____ 2.08

Form: Entry = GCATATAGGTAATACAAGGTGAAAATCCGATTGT | System = RXRa DBDmut IVT, anti-RXR (DBD mutation: RXRa K156A/R161A, NR concentration 90 nM) | PBM binding z-score = ____ 0.0693

Form: Entry = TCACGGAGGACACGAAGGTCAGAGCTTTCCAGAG | System = RXRa DBDmut IVT, anti-RXR (DBD mutation: RXRa K156A/R161A, NR concentration 90 nM) | PBM binding z-score = ____ 0.991

Form: Entry = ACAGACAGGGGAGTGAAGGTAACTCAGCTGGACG | System = RXRa DBDmut IVT, anti-RXR (DBD mutation: RXRa K156A/R161A, NR concentration 90 nM) | PBM binding z-score = ____ -0.277

---
Form: Entry = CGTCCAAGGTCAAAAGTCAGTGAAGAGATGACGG | System = RXRa DBDmut IVT, anti-RXR (DBD mutation: RXRa K156A/R161A, NR concentration 90 nM) | PBM binding z-score = ____ 3.57

Form: Entry = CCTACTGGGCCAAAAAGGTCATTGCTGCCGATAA | System = RXRa DBDmut IVT, anti-RXR (DBD mutation: RXRa K156A/R161A, NR concentration 90 nM) | PBM binding z-score = ____ 0.7

Form: Entry = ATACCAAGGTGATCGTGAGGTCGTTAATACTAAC | System = RXRa DBDmut IVT, anti-RXR (DBD mutation: RXRa K156A/R161A, NR concentration 90 nM) | PBM binding z-score = ____ 0.881

Form: Entry = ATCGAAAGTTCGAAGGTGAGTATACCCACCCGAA | System = RXRa DBDmut IVT, anti-RXR (DBD mutation: RXRa K156A/R161A, NR concentration 90 nM) | PBM binding z-score = ____ 1.94

Form: Entry = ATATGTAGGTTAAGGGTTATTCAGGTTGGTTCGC | System = RXRa DBDmut IVT, anti-RXR (DBD mutation: RXRa K156A/R161A, NR concentration 90 nM) | PBM binding z-score = ____ 0.963

Form: Entry = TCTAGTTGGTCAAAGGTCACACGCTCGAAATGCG | System = RXRa DBDmut IVT, anti-RXR (DBD mutation: RXRa K156A/R161A, NR concentration 90 nM) | PBM binding z-score = ____ 1.72

Form: Entry = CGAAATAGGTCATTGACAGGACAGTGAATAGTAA | System = RXRa DBDmut IVT, anti-RXR (DBD mutation: RXRa K156A/R161A, NR concentration 90 nM) | PBM binding z-score = ____ 2.23
